# study system: human recombinant EPPIN (residues P22-P133) (human, UniProt O95925-1 22-133)
# Sequence (O95925 22-133): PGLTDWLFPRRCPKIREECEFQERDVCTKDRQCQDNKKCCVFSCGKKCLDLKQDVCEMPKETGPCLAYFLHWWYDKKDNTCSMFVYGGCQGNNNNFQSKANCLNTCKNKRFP
# procedure details: cell-based or functional assay
quantity kind: inhibition of human sperm motility (normalized iRMI by CASA), concentration-response, EC50 (µM)

# binder, numeric readout
data = [
    ("recombinant SEMG1^74-42 (residues R165-R281) (domain or fragment, human, UniProt P04279-1 165-281, looked up, semenogelin I (SEMG1), human, residues R165-R281, in pET100/D-TOPO; source: E. coli BL21 Star (DE3), purified under denaturing conditions (Ni-NTA); not shown: His6, N-terminal, kept) RLWVHGLSKEQTSVSGAQKGRKQGGSQSSYVLQTEELVANKQQRETKNSHQNKGHYQNVVEVREEHSSKVQTSLCPAHQDKLQHGSKDIFSTQDELLVYNKNQHQTKNLNQDQQHGR", 3.56),
]

src = paper PMC3846889
